- Test system: Fibroblast
- EXPERIMENT_SUMMARY: Multiplex assay against human fibroblast
- Type: toxicity, cell-based
- CONDITION_CONTEXT: 24 h, 1 µM, compound concentration 1 uM, replicate 1
MEASUREMENT_TYPE: Population Apoptotic (%)
Numbers only, in %.

[
  {
    "MOLECULE_SMILES": "COc1cc2nc(N3CCN(C(=O)COc4c(OC)cccc4C(C)C)CC3)nc(N)c2cc1OC.Cl.Cl",
    "Population Apoptotic (%)": 68
  },
  {
    "MOLECULE_SMILES": "S=C(NCCCc1c[nH]cn1)NCCCN(Cc1ccc(Cl)c(Cl)c1)c1ccc(Br)cn1",
    "Population Apoptotic (%)": 69
  },
  {
    "MOLECULE_SMILES": "COc1cc(C(=O)N2CC[C@@H](O)[C@@H](N)C2)cc2nc(-c3cc4ccccc4n3CC3CC3)n(C)c12.Cl",
    "Population Apoptotic (%)": 55
  }
]

Here's the next entry for you.
Ask: Let me know recorded Population Apoptotic (%) for Cc1cc(-c2ccc3c(c2)CC[C@H]3N2CC3(CCN(C(=O)Cc4cn5cc(C)sc5n4)CC3)C2)ncn1 , thanks.
Reply: 54
